# TEST: Therapeutic index, ratio of IC50 for cytotoxicity against human HepG2 cells to IC50 for antiplasmodial activity against asexual blood stage of chloroquine-sensitive Plasmodium falciparum D6 infected in human erythrocytes
A collection of molecules and their measured selectivity ratio
Output spec: single numeric token, no unit.

1) CCCCCCCc1cc(/C=C2\N=C(c3ccc(Cc4ccc(O)cc4)[nH]3)C=C2OC)[nH]c1C.Cl 192
2) CCCCCCCc1cc(/C=C2\N=C(c3ccc[nH]3)C=C2OC)[nH]c1C.Cl 320
3) CCCCc1cc(/C=C2\N=C(c3ccc(Cc4ccc(O)cc4)[nH]3)C=C2OC)[nH]c1C.Cl 740
4) COC1=CC(c2ccc[nH]2)=N/C1=C\c1cc(CCCCC(C)C)c(C)[nH]1.Cl 363

The recorded selectivity ratio for C=CCCCCCCCCc1ccc(C2=N/C(=C\NCCC=C)C(OC)=C2)[nH]1.Cl is 180

Notebook: COC1=CC2=N/C1=C\NCC/C=C/CCCCCCCCc1ccc2[nH]1.Cl , selectivity ratio read as 1340

In plain terms, CCCCCc1cc(/C=C2\N=C(c3ccc[nH]3)C=C2OC)[nH]c1C.Cl has a documented selectivity ratio of 134

Input CCCCc1cc(/C=C2\N=C(c3ccc[nH]3)C=C2OC)[nH]c1C.Cl . Output selectivity ratio: 301

Reported selectivity ratio ( CCCCCc1cc(/C=C2\N=C(c3ccc(Cc4ccc(O)cc4)[nH]3)C=C2OC)[nH]c1C.Cl ) = 439

selectivity ratio for CCCCCCc1cc(/C=C2\N=C(c3ccc[nH]3)C=C2OC)[nH]c1C.Cl is 410

Kindly note the recorded selectivity ratio for CCCCCCc1cc(/C=C2\N=C(c3ccc(Cc4ccc(O)cc4)[nH]3)C=C2OC)[nH]c1C.Cl , which is 1100

# molecule CCCCCc1cc(/C=C2\N=C(c3ccc(Cc4ccc(OC)cc4)[nH]3)C=C2OC)[nH]c1C.Cl ; its selectivity ratio = 1100

###

# Tested on: Plasmodium yoelii
# TEST: Antimalarial activity against blood stage Plasmodium yoelii infected in CF1 mouse assessed as reduction in parasitemia at 5 mg/kg, po administered once daily for 4 days and measured on day 5 by Giemsa staining based microscopic analysis relative to control
# Type: functional
# Set-up: scale not given: the % may be the effect or the level left
# STUDY_CONDITIONS: time 4 day
READOUT_TYPE: Activity (%)
Give the value in % but do not write % after it.

COMPOUND	UNIT_ABBREV	Activity
CCN(CC)CCCC(C)Nc1ccnc2cc(Cl)ccc12 (centres undefined)	%	100
CCCCCc1cc(/C=C2\N=C(c3ccc[nH]3)C=C2OC)[nH]c1C.Cl	%	63
CCCCCCc1cc(/C=C2\N=C(c3ccc(Cc4ccc(O)cc4)[nH]3)C=C2OC)[nH]c1C.Cl	%	0
CCCCc1cc(/C=C2\N=C(c3ccc(Cc4ccc(O)cc4)[nH]3)C=C2OC)[nH]c1C.Cl	%	0
COC1=CC2=N/C1=C\NCC/C=C/CCCCCCCCc1ccc2[nH]1.Cl	%	0

Summary line: CCCCCCCc1cc(/C=C2\N=C(c3ccc[nH]3)C=C2OC)[nH]c1C.Cl , Plasmodium yoelii, reported Activity = 89

Summary: C=CCCCCCCCCc1ccc(C2=N/C(=C\NCCC=C)C(OC)=C2)[nH]1.Cl , Plasmodium yoelii, Activity = 0

# value of Activity, Plasmodium yoelii, item CCCCCc1cc(/C=C2\N=C(c3ccc(Cc4ccc(O)cc4)[nH]3)C=C2OC)[nH]c1C.Cl = 0

Bench note, Plasmodium yoelii: entry CCCCCCc1cc(/C=C2\N=C(c3ccc[nH]3)C=C2OC)[nH]c1C.Cl , its Activity = 70
